Target: ITK (Homo sapiens)
Sequence (Q08881 whole entry): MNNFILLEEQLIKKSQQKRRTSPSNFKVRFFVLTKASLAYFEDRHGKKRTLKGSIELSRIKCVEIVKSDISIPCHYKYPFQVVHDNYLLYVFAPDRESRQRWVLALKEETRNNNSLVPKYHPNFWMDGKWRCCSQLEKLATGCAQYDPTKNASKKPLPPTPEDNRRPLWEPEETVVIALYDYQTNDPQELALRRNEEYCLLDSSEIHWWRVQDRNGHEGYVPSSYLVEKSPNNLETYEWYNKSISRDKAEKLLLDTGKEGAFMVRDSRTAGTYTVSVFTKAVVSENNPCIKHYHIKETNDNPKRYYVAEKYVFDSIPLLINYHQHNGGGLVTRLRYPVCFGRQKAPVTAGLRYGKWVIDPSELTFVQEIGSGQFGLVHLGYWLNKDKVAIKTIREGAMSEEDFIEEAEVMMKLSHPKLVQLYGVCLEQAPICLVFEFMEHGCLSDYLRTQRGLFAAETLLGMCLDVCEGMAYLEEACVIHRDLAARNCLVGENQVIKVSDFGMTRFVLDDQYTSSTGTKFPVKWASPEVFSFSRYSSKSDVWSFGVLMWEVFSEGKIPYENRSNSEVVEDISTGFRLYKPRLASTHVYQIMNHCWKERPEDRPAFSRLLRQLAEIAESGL
measure: IC50 (nM)

>  <compound>
C=CC(=O)N1CCC[C@H](Nc2cc(Cc3ccccn3)cc(Nc3ncc(C)s3)n2)C1

>  <measure>
IC50

>  <number>
1.9

$$$$
>  <compound>
C=CC(=O)N1CCC[C@H](Nc2cc(CN3CCN(CCCN)CC3)cc(Nc3ncc(C)s3)n2)C1

>  <measure>
IC50

>  <number>
9

$$$$
>  <compound>
C=CC(=O)N1CCC[C@H](Nc2cc(-c3ccccc3)cc(Nc3ncc(C)s3)n2)C1

>  <measure>
IC50

>  <number>
4.8

$$$$
>  <compound>
CC#CC(=O)N1CCC2CCN(c3cc(CN4CCOCC4)cc(Nc4ncc(C)s4)n3)CC21 (centres unmarked)

>  <measure>
IC50

>  <number>
50.4

$$$$
>  <compound>
C=CC(=O)N1CCC2CCN(c3cc(CN4CCOCC4)cc(Nc4ncc(C)s4)n3)CC21 (centres unmarked)

>  <measure>
IC50

>  <number>
31.7

$$$$

P = C=CC(=O)N1CCC(Nc2cc(CN3CCOCC3)nc(Nc3ncc(C)s3)n2)C1 (centres unmarked)
Q = C=CC(=O)N1CCC[C@H](N(C)c2cc(CN3CCOCC3)cc(Nc3ncc(C)s3)n2)C1
Query string: Endpoint returns whichever of P and Q has the numerically higher IC50. Return value: the label identifying the chosen record.
Result string: P

1 = C=CC(=O)N1CC[C@@H](Nc2cc(CN3CCOCC3)cc(Nc3ncc(C)s3)n2)C1
2 = C=CC(=O)N1CCC[C@H](Nc2cc(CN3CCN(CC)CC3)cc(Nc3ncc(C)s3)n2)C1
Query string: Which has the smaller recorded IC50, 1 or 2 ? Return value: the label identifying the chosen record.
Result string: 2
(2: 5.6 nM, 1: 36 nM)

P = C=CC(=O)N1CCC(Nc2cc(CN3CCOCC3)cc(Nc3ncc(C)s3)n2)C1 (centres unmarked)
Q = C=CC(=O)N1CCC(Nc2cc(CN3CCOCC3)cc(Nc3ncc(C)s3)n2)CC1
Query string: Which has the smaller recorded IC50, P or Q ? Return value: the label identifying the chosen record.
Result string: P
(P: 2.6 nM, Q: 9.1 nM)

Value source: patent US12227498B2
